Measured values drawn from the Kinase Knowledgebase extract (Sharma et al. 2016) for this set.

biological target: CDK2 (UniProt P24941)
Quantity name: IC50

Some entries whose results are on file:
>>> measured_value("O=[N+]([O-])c1ccc2c(c1)C(c1ccccc1Cl)=Nc1c(n[nH]c1-c1ccccc1[N+](=O)[O-])N2")
"10 to 30 µM"
>>> measured_value("O=[N+]([O-])c1ccc2c(c1)C(c1ccccc1Cl)=Nc1c(n[nH]c1-[n+]1ccc[nH]1)N2")
"0.01 to 0.99 µM"
>>> measured_value("CC(C)Cc1[nH]nc2c1N=C(c1ccccc1Cl)c1cc([N+](=O)[O-])ccc1N2")
"1 to 9.99 µM"
>>> measured_value("O=[N+]([O-])c1ccc2c(c1)C(c1ccccc1Cl)=Nc1c(n[nH]c1-c1ccc3ccccc3c1)N2")
"1 to 9.99 µM"
>>> measured_value("O=C(c1ccc2c(c1)C(c1ccccc1F)=Nc1c[nH]nc1N2)N(CCO)CCO")
"1 to 9.99 µM"

Fill in the blank: the reported IC50 of O=[N+]([O-])c1ccc2c(c1)C(c1ccccc1Cl)=Nc1c(n[nH]c1-c1ccccc1C(F)(F)F)N2 is ____.
10 to 30 µM

Please give the measured IC50 for this compound: Fc1ccccc1C1=Nc2c[nH]nc2Nc2ccccc21
1 to 9.99 µM

What measured IC50 goes with O=C(O)c1ccc2c(c1)C(c1ccccc1F)=Nc1c[nH]nc1N2 ?
1 to 9.99 µM

What value of IC50 has been reported for the following compound? O=[N+]([O-])c1ccc2c(c1)C(c1ccccc1Cl)=Nc1c(n[nH]c1-c1cccc(O)c1)N2
1 to 9.99 µM

If you can, please state the reported IC50 value of O=[N+]([O-])c1ccc2c(c1)C(c1ccccc1)=Nc1c(n[nH]c1-c1ncc[nH]1)N2 .
1 to 9.99 µM

Form field: reported IC50 of Cc1ccccc1-c1[nH]nc2c1N=C(c1ccccc1Cl)c1cc([N+](=O)[O-])ccc1N2
1 to 9.99 µM

Which measured IC50 value corresponds to O=[N+]([O-])c1ccc2c(c1)C(c1ccccc1Cl)=Nc1c(n[nH]c1-c1cccs1)N2 ?
0.01 to 0.99 µM
